Test system: PfHDP1 homeodomain (GST-tagged)
Experiment summary: gcPBM binding intensity (ln(normalized median fluorescence intensity)); higher = stronger DNA binding
The full ranking holds about 25,000 sequences; the median of “ln(normalized median fluorescence intensity)” is about 6.7, and the highest 2% start at about 10. What follows is part of a selection rich in the highest values, with near analogues and random picks from the rest.
Measurement name: gcPBM binding intensity (ln)
API doc: respond with a numeric literal and nothing else, no unit.

Consider the reported gcPBM binding intensity (ln) for these sequences:
Monomer sequence | gcPBM binding intensity (ln)
TAGAATGTATGTAGTGCACACCTCTATAATATATTA [CACACA_site1873] | 10.5
AGCTCTTGTCATTTTGCACACACACCGGTATAGGTT [CACACA_site5654] | 10.4
AATCTAATTAAAATCACACATATATTCGTCGTAATA [CACACA_site5855] | 6.05
TCCCTTAATTTTGTGTGTACATATAATATATTTTTA [XGTACX_site2789] | 6.76
TATGTACACCCATATACACACCTCTATAATATATAT [CACACA_site4563] | 7.13
CTCTTGTCATTTTGCACACACACATGGATAGGTTAT [CACACA_site5655] | 10.8
AGACCTTTAATTTGTGTGCACATAATTAGTGTACAT [GTGCAC_site9434] | 10.7
GTATATCACACATTTGCATGTTGTCAATAGTTTATC [TGCATGCA_site134] | 6.93

Could you tell me which gcPBM binding intensity (ln) is on file for TTGTATTATATTGTATTATGTTTAAATGAAAAAAAA [CACACA_negctrl_site662] ? 6.46
